- System: HS 578T breast
- test.description: NCI tumour cell line growth inhibition, 48 h
TGI reference
Give your result in µM as a bare value.

CCN(CC)CCCNc1[nH]ncc2c(C)c3nc4ccc(OC)cc4c3cc12    4.25
NC(=S)N=Nc1c(O)c2ccccc2c2ccccc12    7.96

# input for lookup
# input Quick one: TGI for COc1cc(/C=C/c2cc(/C=C/c3ccc(O)c(OC)c3)n(C(=O)Nc3ccc(Cl)cc3)n2)ccc1O ?
# output 5.63

----------
The following compounds are listed with their measured TGI values.
- Tested on: SW-620 colon
- test.description: NCI tumour cell line growth inhibition, 48 h

CCN(CC)CCCNc1[nH]ncc2c(C)c3nc4ccc(OC)cc4c3cc12    1.58 µM
CC1(C)OC[C@@H](O)[C@H](Br)CO1    > 100 µM
OC12c3ccccc3C3CCC4(OCCO4)C3C1c1ccccc12 (stereo unspecified)    > 100 µM
O=C(O)c1ccc(Nc2nc3cc(C(F)(F)F)ccc3n3cccc23)cc1    > 100 µM
O=C(CCc1nnc2s/c(=C\c3ccccc3Cl)c(=O)n12)Nc1cc(Cl)ccc1Cl    > 100 µM

# input I have this compound here, O=[N+]([O-])/C(C(Cl)=C(Cl)Cl)=C(\N1CCCCC1)n1nnc2ccccc21 , and I need its recorded TGI.
# output 39.1 µM

# input Cool, now Cn1c(=S)c2[nH]c(SCCN3C(=O)c4ccccc4C3=O)nc2n(C)c1=O
# output > 100 µM

# input Can you check CNC(=O)OC(COC)CN1CCN(c2ccccc2C)CC1 (stereo unspecified) next?
# output > 10 µM

# input What do we get for Cc1cc(=O)[nH]c(CNC(=O)c2cccc(C(=O)NCc3cc(=O)[nH]c(C)n3)c2)n1 ?
# output > 100 µM

# input Then CC(=O)C(=[N+]=[N-])C(=O)N(C)CCC#N ?
# output > 10 µM

# input Now the compound CCN(CC)c1ccc2cc(C(=O)Nc3ccc(C)cc3)c(=N)oc2c1
# output > 100 µM
